endpoint.name: melting point (°C)

[
  {
    "entry.smiles": "O=C(Nc1ncc2ccccc2c1Br)c1ccccc1NCc1ccncc1",
    "melting point (°C)": 135.8
  }
]

[a] O=C(Nc1cc(C(F)(F)F)ccc1C(F)(F)F)c1ccccc1NCc1ccncc1
[b] Cc1cc2cc(Cl)ccc2nc1NC(=O)c1ccccc1NCc1ccc(O)nc1
[c] O=C(Nc1cc(C(F)(F)F)ccc1Cl)c1ccccc1NCc1ccncc1
Please order the records by their reported melting point, lowest number first. To answer, arrange all of the labels according to the requested order.
a, c, b
(a: 68 °C, c: 105 °C, b: 172 °C)

[1] O=C(Nc1cc2[nH]ncc2cc1Cl)c1ccccc1NCc1ccncc1
[2] COc1ccc(C(F)(F)F)cc1NC(=O)c1ccccc1NCc1ccncc1
// task: argmin of melting point over [ 1 , 2 ] Kindly give the label for the entry you pick.
2
(2: 135 °C, 1: 236.7 °C)

* * *

target: UniProt:P10721; experiment: C-Kit-isolated kinase-inhibition test; conditions: 10 minutes incubation
Sequence (P10721 26-976): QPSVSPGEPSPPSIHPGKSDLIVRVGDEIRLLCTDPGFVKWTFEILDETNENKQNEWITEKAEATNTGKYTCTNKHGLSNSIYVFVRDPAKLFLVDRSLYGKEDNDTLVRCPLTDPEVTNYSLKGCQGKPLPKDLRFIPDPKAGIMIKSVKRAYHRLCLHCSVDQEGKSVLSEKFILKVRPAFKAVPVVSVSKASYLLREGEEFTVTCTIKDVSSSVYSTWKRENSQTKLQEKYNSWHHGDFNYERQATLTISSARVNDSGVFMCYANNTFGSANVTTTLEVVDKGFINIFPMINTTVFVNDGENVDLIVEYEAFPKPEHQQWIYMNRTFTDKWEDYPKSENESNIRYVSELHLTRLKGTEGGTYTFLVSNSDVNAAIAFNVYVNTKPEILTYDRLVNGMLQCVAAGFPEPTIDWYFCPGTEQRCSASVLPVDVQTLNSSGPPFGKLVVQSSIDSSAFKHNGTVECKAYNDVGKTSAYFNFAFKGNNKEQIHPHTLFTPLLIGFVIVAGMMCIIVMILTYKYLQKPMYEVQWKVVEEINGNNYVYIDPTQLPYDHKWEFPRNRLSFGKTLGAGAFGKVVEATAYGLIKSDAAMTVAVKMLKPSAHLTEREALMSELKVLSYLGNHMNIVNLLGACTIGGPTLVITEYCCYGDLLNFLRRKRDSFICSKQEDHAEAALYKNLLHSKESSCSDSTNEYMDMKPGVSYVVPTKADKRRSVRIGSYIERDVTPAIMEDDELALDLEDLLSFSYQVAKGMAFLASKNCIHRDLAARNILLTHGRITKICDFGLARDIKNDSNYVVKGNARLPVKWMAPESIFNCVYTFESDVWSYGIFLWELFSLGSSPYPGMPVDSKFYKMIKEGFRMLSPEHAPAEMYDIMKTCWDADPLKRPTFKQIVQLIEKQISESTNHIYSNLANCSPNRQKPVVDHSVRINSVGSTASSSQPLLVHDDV
pIC50: −log10 of the molar value.
endpoint.name: pIC50

[
  {
    "molecule": "O=C(Nc1ncc2ccccc2c1Br)c1ccccc1NCc1ccncc1 [Example 26]",
    "pIC50": 5.70
  },
  {
    "molecule": "O=C(Nc1cc2ccccc2oc1=O)c1ccccc1NCc1ccncc1 [Example 1]",
    "pIC50": 5.22
  },
  {
    "molecule": "O=C(Nc1cc(C(F)(F)F)ccc1Cl)c1ccccc1NCc1ccncc1 [Example 14]",
    "pIC50": 5.30
  }
]

[a] Cc1cc2oc(=O)ccc2cc1NC(=O)c1ccccc1NCc1ccncc1 [Example 3]
[b] O=C(Nc1cc(C(F)(F)F)ccc1F)c1ccccc1NCc1ccncc1 [Example 15]
[c] Cc1cc2cc(Cl)ccc2nc1NC(=O)c1ccccc1NCc1ccc(O)nc1 [Example 28]
[d] COc1ccc(C(F)(F)F)cc1NC(=O)c1ccccc1NCc1ccncc1 [Example 13]
// sort entries: pIC50, high to low To answer, arrange all of the labels according to the requested order.
c, b, d, a
(c: 6.30, b: 5.70, d: 5.30, a: 5.10)

* * *

Below are IC50 values measured for KDR kinase (Homo sapiens, UniProt P35968).
endpoint.name: IC50 (nM)

Solved entries (count: 2):
[
  {
    "molecule": "Cc1cc2cn[nH]c2cc1NC(=O)c1ccccc1NCc1ccncc1 [Example 9]",
    "system.tested": "KDR kinase (Homo sapiens, UniProt P35968)",
    "IC50 (nM)": 40
  },
  {
    "molecule": "O=C(Nc1cc2cc(Br)ccc2oc1=O)c1ccccc1NCc1ccncc1 [Example 7]",
    "system.tested": "KDR kinase (Homo sapiens, UniProt P35968)",
    "IC50 (nM)": 200
  }
]

[a] COc1ccc2cc(NC(=O)c3ccccc3NCc3ccncc3)c(=O)oc2c1 [Example 5]
[b] Cc1cc2[nH]ncc2cc1NC(=O)c1ccccc1NCc1ccncc1 [Example 11]
When a and b are compared, which has the higher number for IC50? Kindly give the label for the entry you pick.
b
(b: 1000 nM, a: 10 nM)

* * *

Below are IC50 values measured for UniProt P35968.
endpoint.name: IC50 (nM)

Solved entries (count: 3):
[
  {
    "compound": "COc1ccc(C(F)(F)F)cc1NC(=O)c1ccccc1NCc1ccncc1 [Example 13]",
    "system.tested": "UniProt P35968",
    "uom": "nM",
    "measurement": 50
  },
  {
    "compound": "O=C(Nc1ncc2ccccc2c1Br)c1ccccc1NCc1ccncc1 [Example 26]",
    "system.tested": "UniProt P35968",
    "uom": "nM",
    "measurement": 1
  },
  {
    "compound": "O=C(Nc1cc(C(F)(F)F)ccc1Cl)c1ccccc1NCc1ccncc1 [Example 14]",
    "system.tested": "UniProt P35968",
    "uom": "nM",
    "measurement": 1
  }
]

[A] Cc1cc2oc(=O)ccc2cc1NC(=O)c1ccccc1NCc1ccncc1 [Example 3]
[B] O=C(Nc1cc2cn[nH]c2cc1Cl)c1ccccc1NCc1ccncc1 [Example 2]
// task: argmin of IC50 over [ A , B ] Kindly give the label for the entry you pick.
A

* * *

endpoint.name: melting point (°C)

[
  {
    "entry.smiles": "Cc1cc2[nH]ncc2cc1NC(=O)c1ccccc1NCc1ccncc1",
    "measurement": 224.2
  },
  {
    "entry.smiles": "Cc1cc2oc(=O)ccc2cc1NC(=O)c1ccccc1NCc1ccncc1",
    "measurement": 191.2
  }
]

* * *

endpoint.name: melting point

Solved entries (count: 2):
[
  {
    "entry.smiles": "COc1ccc2cc(NC(=O)c3ccccc3NCc3ccncc3)c(=O)oc2c1",
    "melting point": "171 to 172 °C"
  },
  {
    "entry.smiles": "O=C(Nc1cc2cc(Br)ccc2oc1=O)c1ccccc1NCc1ccncc1",
    "melting point": "198 to 200 °C"
  }
]

Which melting point value is on record for "O=C(Nc1cc2cc(Cl)ccc2oc1=O)c1ccccc1NCc1ccncc1" ?
182 to 184 °C
